PROTOCOL: Lipophilicity, logP of compound at 100 uM incubated for 90 mins by HPLC analysis
Type: physicochemical
OUTCOME MEASURE: logP at […], 100 µM

# count of solved cases: 3
[
  {
    "COMPOUND": "O=C(Nc1ccc(C(F)(F)F)cc1)NC1CCN(C(=O)C2CCCOC2)CC1 (centres undefined)",
    "OUTCOME MEASURE": "logP at […], 100 µM",
    "RECORDED VALUE": 3.41
  },
  {
    "COMPOUND": "CC[C@H](C)C(=O)N1CCC(NC(=O)Nc2ccc(OC(F)(F)F)c(Cl)c2)CC1",
    "OUTCOME MEASURE": "logP at […], 100 µM",
    "RECORDED VALUE": 7.7
  },
  {
    "COMPOUND": "O=C(Nc1ccc(C(F)(F)F)cc1)NC1CCN(C(=O)C2=COCC2)CC1",
    "OUTCOME MEASURE": "logP at […], 100 µM",
    "RECORDED VALUE": 3.37
  }
]

a: O=C(Nc1ccc(OC(F)(F)F)c(F)c1)NC1CCN(C(=O)C2CCOCC2)CC1
b: O=C(Nc1ccc(OC(F)(F)F)c(F)c1)NC1CCN(C(=O)C2(C(F)(F)F)CC2)CC1
Query: Given the listed records, identify the one among a and b with higher logP at […], 100 µM. Lab note: record the label of whichever item you select.
Result: b
(b: 5.94, a: 3.73)

1: CCOC(=O)N1CCC(NC(=O)Nc2ccc(OC(F)(F)F)c(F)c2)CC1
2: O=C(Nc1ccc(OC(F)(F)F)cc1)NC1CCN(C(=O)C2CCOCC2)CC1
Query: Field: lower logP at […], 100 µM | Options: 1 / 2 Kindly state the label of the option you pick.
Result: 2

---

PROTOCOL: Cmax in mouse at 0.3 mg/kg, po
Assay type: ADME, organism-based
Parameters: route oral, dose 0.3 mg/kg
ASSAY CONDITIONS: in vivo
OUTCOME MEASURE: Cmax (nM)

[
  {
    "COMPOUND": "CCC(=O)N1CCC(NC(=O)Nc2ccc(OC(F)(F)F)c(F)c2)CC1",
    "MEASUREMENT UNITS": "nM",
    "Cmax": 479
  },
  {
    "COMPOUND": "O=C(Nc1ccc(OC(F)(F)F)cc1)NC1CCN(C(=O)C2CCOCC2)CC1",
    "MEASUREMENT UNITS": "nM",
    "Cmax": 381
  },
  {
    "COMPOUND": "CC(C)C(=O)N1CCC(NC(=O)Nc2ccc(OC(F)(F)F)c(F)c2)CC1",
    "MEASUREMENT UNITS": "nM",
    "Cmax": 423
  }
]

1: CC[C@H](C)C(=O)N1CCC(NC(=O)Nc2ccc(OC(F)(F)F)c(F)c2)CC1
2: O=C(Nc1ccc(OC(F)(F)F)c(F)c1)NC1CCN(C(=O)C2CCOCC2)CC1
3: O=C(Nc1ccc(OC(F)(F)F)cc1)NC1CCN(C(=O)C2CCCOC2)CC1 (racemic)
4: O=C(Nc1ccc(OC(F)(F)F)c(F)c1)NC1CCN(C(=O)C2CCCOC2)CC1 (configuration not stated)
Query: Please rank these compounds by Cmax in descending order. As an answer, provide the labels arranged in the order called for.
Result: 2, 1, 4, 3
(2: 332 nM, 1: 166 nM, 4: 112 nM, 3: 38 nM)
